src = paper PMC5540273

# System: CAMKK2;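 note: KINOMEscan kinase panel screen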
# Test Conditions: concentration: 1 μM, replicates: in singlicate; n = 1
For each record, write down the corresponding %Inh.

Q: Find the measured %Inh of `C[C@@H]1CC[C@@H](C(=O)Nc2ccccc2)CN1c1cc(-c2ccc3c(N)n[nH]c3c2)nc(N)n1` and report it.
A: 7%

Q: Find the measured %Inh of Cc1ccc(C)c(NC(=O)NC2CCN(c3ccnc(Nc4ccc(F)cc4)n3)C2)c1 (centres unmarked) and report it.
A: 0%

Q: Find the measured %Inh of `COC(=O)Nc1nc2cc(Oc3ccc(NC(=O)Nc4cc(C(F)(F)F)ccc4F)cn3)ccc2[nH]1.Cl.Cl` and report it.
A: 59%

Q: Find the measured %Inh of `O=C(Nc1cccc(-c2nn3ccccc3c2-c2ccnc(Nc3cccc(F)c3)n2)c1)c1c(F)ccc(F)c1Cl` and report it.
A: 0%

Q: Find the measured %Inh of `Cc1ccc(C(=O)N2CC[C@@H](O)C2)cc1-n1c(C)cc(OCc2ccc(F)cc2F)c(Br)c1=O` and report it.
A: 0%

Q: Find the measured %Inh of `c1ccc(-c2cnc3nccnn23)cc1` and report it.
A: 0%

Q: Find the measured %Inh of `Nc1ncnc2c1nc(-c1ccccc1)n2-c1ccccc1` and report it.
A: 6%

Q: Find the measured %Inh of `CN1CCN(Cc2cccc(-c3ccc4c(Nc5ccc(Oc6ccccc6)cc5)ccnc4c3)c2)CC1` and report it.
A: 0%
